Entries and their Potency
measured_on: Aldehyde dehydrogenase 1A1 (Homo sapiens) (UniProt P00352)
method_notes: qHTS for Inhibitors of the Aldehyde Dehydrogenase Family (ALDH1A1) Confirmatory screens (AID 2061316); further: potency means the concentration at half of the fitted maximal effect; nearly all actives have a fitted effect of over 65% in size
test_settings: ALDH inhibition qHTS; series mostly up to 47.3 µM
Inconclusive results are not listed. The source made the active and inactive calls. The call rests on the fitted dose curve; in most records, active means well fitted inhibition curve with a large enough effect; inconclusive means small, poorly fitted or top-dose-only effect; inactive means no such curve, though single readings can be large or run the other way.

Query string: So what's the measured Potency for this one? CNc1sc(-c2cccc3ccccc23)nc1C(=O)OC
Result string: 14.2 µM (active)

Query string: Please give the measured Potency for this compound: Cc1ccc(-n2c(C)cc(-c3nnc4n3CCCCC4)c2C)cc1
Result string: 20.1 µM (active)

Query string: Given O=C1Cc2cc(S(=O)(=O)N3CCN(c4ccc(O)cc4)CC3)ccc2N1 , state its recorded Potency.
Result string: 11.3 µM (active)

----------
measured_on: Retinaldehyde dehydrogenase 3 (Homo sapiens)
method_notes: qHTS for Inhibitors of the Aldehyde Dehydrogenase Family (ALDH1A3) Confirmatory screens (AID 2061311); further: nearly all actives have a fitted effect of over 60% in size
test_settings: ALDH inhibition qHTS; series mostly up to 46 µM
Results filed as inconclusive are left out. Calls of active or inactive are those of the source. The call rests on the fitted dose curve; in most records, active means well fitted inhibition curve with a large enough effect; inconclusive means small, poorly fitted or top-dose-only effect; inactive means no such curve, though single readings can be large or run the other way.
Write down one outcome, taken from class 1 = active, class 0 = inactive

Field: example entries. Status: answers known.
Query string: Outcome logged for CC(=O)c1c(C)n(-c2cccc(Cl)c2)c2ccc(OC(=O)c3ccccc3)cc12 in this assay:
Result string: class 0

Query string: Per the records of this test, what outcome belongs to Brc1ccc(-c2ccc(C3Nc4cccc5cccc(c45)N3)o2)cc1 ?
Result string: class 1

Query string: Test call for this compound, please: COc1ccc(C2=Nn3c(nnc3-c3ccccc3OC)SC2)c(OC)c1
Result string: class 0

Query string: Answer briefly: the call reported for Cc1ccc(CNc2cccc(N3CCCCC3)c2)cc1 in this assay.
Result string: class 1

Query string: What call does the record list for Cc1ccc(CN(C)c2ccc(N3CCN(C)CC3)cc2)cc1 ?
Result string: class 1

Query string: Returns: the outcome recorded for O=C(NCC(=O)N1CCC(c2ccccc2)CC1)c1cccc(-c2ccc(C(F)(F)F)cc2)c1 in this assay.
Result string: class 0

***
Query string: Which outcome did this test record for the compound NC(=O)C1CCN(c2nc(-c3cc4ccccc4o3)cs2)CC1 ?
Result string: class 0

Query string: Assay outcome for CCOC(=O)c1ccc(N2CCN(c3cccc(Cl)c3)CC2)c(NC(=O)Nc2ccc(Cl)cc2)c1 : what was it?
Result string: class 0

----------
measured_on: Retinaldehyde dehydrogenase 3 (Homo sapiens) (UniProt P47895)
method_notes: qHTS for Inhibitors of the Aldehyde Dehydrogenase Family (ALDH1A3) Confirmatory screens (AID 2061311); further: nearly all actives have a fitted effect of over 60% in size
test_settings: ALDH inhibition qHTS; series mostly up to 46 µM
Records with an inconclusive call do not appear. The source made the active and inactive calls. Calls come from the whole dose curve; as a rule, active = well fitted inhibition curve with a large enough effect; inconclusive = small, poorly fitted or top-dose-only effect; inactive = no such curve, though single readings can be large or run the other way.
Pick one: 1 (yes) for active, 0 (no) for inactive

For orientation, consider the following solved cases.
Query string: Called result for O=C(Nc1ncc(Cc2ccc(C(F)(F)F)cc2)s1)c1ccc(-c2ccccc2[N+](=O)[O-])o1
Result string: 1 (yes)

Query string: Given Cc1oc(-c2ccccc2F)nc1CS(=O)(=O)CC(=O)N1CCN(c2cccc(C(F)(F)F)c2)CC1 , state the outcome it received in this test.
Result string: 0 (no)

Query string: Please indicate how the test categorized O=C(O)c1ccc(-c2noc(-c3ccccc3F)n2)cc1 .
Result string: 1 (yes)

Query string: Which outcome did this test record for the molecule N#Cc1cccnc1SC1=NS(=O)(=O)c2ccccc21 ?
Result string: 1 (yes)

Query string: Field: outcome | Entry: CC(=O)Nc1ccc(-c2c(NC(C)=O)sc3c2CCNC3)cn1
Result string: 0 (no)

Turning now to a further record.
Query string: Each molecule tested received a call. Report the one for N#Cc1cccc(OC2=NS(=O)(=O)c3ccccc32)c1 .
Result string: 1 (yes)

----------
method_notes: BET inhibitor-based combinations targeting novel dependencies in MECOM-rearranged (r) AML: MV-4-11 cell line (AID 2202233); further: nearly all actives have a fitted effect of over 45% in size
test_settings: MV-4-11 AML viability, CellTiter-Glo luminescence, 48 h; series mostly up to 46 µM
Results filed as inconclusive are left out. Calls of active or inactive are those of the source. Calls come from the whole dose curve; as a rule, active = well fitted inhibition curve with a large enough effect; inconclusive = small, poorly fitted or top-dose-only effect; inactive = no such curve, though single readings can be large or run the other way.
Outcomes you can answer with include only these: class 1 (active), class 0 (inactive)

Query string: Record lookup: outcome of this test for COc1cc(C)[nH]c(=O)c1CN1CCc2c(Cl)cc([C@H](OC)C3COC3)c(Cl)c2C1=O ?
Result string: class 0

Query string: Recorded test outcome, item COc1ccc(-c2cc(C(O)C3CCCCN3)c3ccccc3n2)cc1 (stereo unspecified)
Result string: class 1

Query string: Hi, do you know how O=C(O)CNC(=O)c1ncc(-c2cccc(Cl)c2)cc1O came out in this test?
Result string: class 0

Others:
Query string: For O=C(O)/C(S)=C/c1ccc(I)cc1 , what call appears in the results of this test?
Result string: class 0

Query string: I would be grateful if you could indicate the recorded call for Fc1cccc(-n2cnc3c(NCc4nc5c(F)c(F)ccc5[nH]4)nc(N4CCOCC4)nc32)c1 .
Result string: class 1

Query string: Would you mind telling me which call this test gave C/C(=C\c1csc(C)n1)[C@@H]1C[C@@H]2O[C@]2(C)CCC[C@H](C)[C@H](O)[C@@H](C)C(=O)C(C)(C)[C@@H](O)CC(=O)N1 ?
Result string: class 1

Query string: Called result for CC(C)(CO)n1cc(C(=O)c2cncc(NC(=O)Cc3ccc(Cl)cn3)c2)c2cnc(N)nc21
Result string: class 1

Query string: Record request — test call for CC1(C)CCC2(CC1)N[C@@H](C(=O)N[C@@H]1CC[C@@H](C(N)=O)OC1)[C@H](c1ccnc(Cl)c1F)[C@]21C(=O)Nc2cc(Cl)ccc21
Result string: class 1

Query string: Hi, sorry to bother you, what did the test record for CNC(=O)c1ccc(N2C(=S)N(c3ccc(C#N)c(C(F)(F)F)c3)C(=O)C2(C)C)cc1F ?
Result string: class 1

Query string: # outcome recorded in this test, key = CN(C(=O)c1c(O)c2ccccc2n(C)c1=O)c1ccccc1
Result string: class 0

Query string: So what was the verdict on CC(=O)N[C@H]1[C@H](O[C@@H]2c3ccc(c(Cl)c3)Oc3cc4cc(c3O[C@@H]3O[C@H](CO)[C@@H](O)[C@H](O)[C@H]3NC(=O)CCCCCCCC(C)C)Oc3ccc(cc3Cl)C[C@H]3NC(=O)[C@H](N)c5ccc(O)c(c5)Oc5cc(O)cc(c5)[C@H](NC3=O)C(=O)N[C@H]4C(=O)N[C@H]3C(=O)N[C@@H]2C(=O)N[C@@H](C(=O)O)c2cc(O)cc(O[C@H]4O[C@H](CO)[C@@H](O)[C@H](O)[C@@H]4O)c2-c2cc3ccc2O)O[C@H](CO)[C@@H](O)[C@@H]1O in this test?
Result string: class 0

----------
method_notes: BET inhibitor-based combinations targeting novel dependencies in MECOM-rearranged (r) AML: HNT-34 cell line (AID 2202234); further: nearly all actives have a fitted effect of over 35% in size
test_settings: HNT-34 AML viability, CellTiter-Glo luminescence, 48 h; series mostly up to 46 µM
Records with an inconclusive call do not appear. Active and inactive are the calls of the source. Calls follow the shape of the dose curve; as a rule, active = well fitted inhibition curve with a large enough effect; inconclusive = small, poorly fitted or top-dose-only effect; inactive = no such curve, though single readings can be large or run the other way.
Respond using exactly one of the listed classes: True (active), False (inactive)

Worked examples follow.
Query string: Which outcome was entered for the compound Clc1cccc(-c2ccc(-c3nnc(CCCc4ccc5cccnc5n4)o3)cc2)c1 in this test?
Result string: False

Query string: Which outcome was entered for the compound C[C@H]1O[C@@H](O[C@H]2[C@@H](O)C[C@H](O[C@H]3[C@@H](O)C[C@H](O[C@H]4CC[C@@]5(C)[C@H](CC[C@@H]6[C@@H]5C[C@@H](O)[C@]5(C)[C@@H](C7=CC(=O)OC7)CC[C@]65O)C4)O[C@@H]3C)O[C@@H]2C)C[C@H](O)[C@@H]1O in this test?
Result string: True

Then this compound:
Query string: Which result was noted for this compound in the test: O=C(CCc1ccc(O)cc1)c1c(O)cc(O)cc1O[C@@H]1O[C@H](CO)[C@@H](O)[C@H](O)[C@H]1O
Result string: False

----------
measured_on: Aldehyde dehydrogenase, mitochondrial (Homo sapiens)
method_notes: qHTS for Inhibitors of the Aldehyde Dehydrogenase Family (ALDH2) Primary screen (AID 2061308);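 further: plate controls were vehicle for no effect and reference inhibitor for full effect; nearly all actives have a fitted effect of over 55% in size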
test_settings: ALDH2 enzyme inhibition qHTS, 1536-well; series mostly up to 56 µM
Results filed as inconclusive are left out. The source made the active and inactive calls. Calls follow the shape of the dose curve; as a rule, active = well fitted inhibition curve with a large enough effect; inconclusive = small, poorly fitted or top-dose-only effect; inactive = flat fitted curve, though single readings scatter.
assay_metric: outcome

Query string: Query (molecule): CCCCC1CCC(C(=O)Nc2ccc(S(=O)(=O)Nc3cc(C)on3)cc2)CC1 (stereo not drawn) ; field requested: outcome
Result string: inactive

Query string: I would be grateful if you could share the reported outcome for O=C(N[C@H]1CCCc2c1cnn2-c1ccc(F)cc1F)c1ccccn1 .
Result string: inactive

Query string: What measured outcome goes with Cc1cc(C)nc(NC(=S)N2CCN(c3ccc4cnccc4c3)CC2)c1 ?
Result string: inactive

----------
measured_on: Retinal dehydrogenase 2 (Homo sapiens) (UniProt O94788)
method_notes: qHTS for Inhibitors of the Aldehyde Dehydrogenase Family (ALDH1A2) Confirmation screens (AID 2061314); further: nearly all actives have a fitted effect of over 65% in size
test_settings: ALDH1A2 enzyme inhibition qHTS confirmation; series mostly up to 45.9 µM
Records with an inconclusive call do not appear. The source made the active and inactive calls. Calls follow the shape of the dose curve; as a rule, active = well fitted inhibition curve with a large enough effect; inconclusive = small, poorly fitted or top-dose-only effect; inactive = no such curve, though single readings can be large or run the other way.
One label from this list, please: active, inactive

Query string: Would you mind telling me which call this test gave Cc1ccc(N[S+](=O)([O-])c2cc3c(cc2Cl)NC(=O)CO3)cc1Br ?
Result string: active

Others:
Query string: // outcome(item) with item = Cc1ccc(S(=O)(=O)Nc2cnccc2C(=O)Nc2nc(C(=O)O)cs2)cc1
Result string: inactive

Query string: Please let me know the test result on file for COc1ccc(C(CNC(=O)c2cccc([N+](=O)[O-])c2)N2CCOCC2)cc1 (stereo not drawn) .
Result string: inactive

Query string: Hey, what did the test say about COc1cccc(-c2nc(-c3ccc(C(=O)O)cc3)no2)c1 ?
Result string: inactive

Query string: Field: outcome | Entry: CN(C)[S+](=O)([O-])c1ccc(-c2cncc(NC(=O)c3cccs3)c2)cc1
Result string: active

Query string: For this compound, state the assay outcome: COc1ccc(S(=O)(=O)N2CCC3(CC2)CC(CC(=O)NC2CC2)CCO3)cc1 (stereo not drawn)
Result string: inactive

Query string: How did this test come out for CC(=O)Nc1sc2c(c1-c1cccc3[nH]ncc13)CCNC2 ?
Result string: active

Query string: Hi, sorry to bother you, what did the test record for CCN(CC)CC(=O)c1c(C)n(C)c2ccc(OC)cc12 ?
Result string: inactive
